Tested on: M17-TAU P301L cells
Protocol Description: TAU cytotoxicity assay: LDH leakage of retinoic acid incubated M17-TAU P301L cells
Type: cell-based, human
Setup Conditions: Homo sapiens, 168 h, reduction of LDH activity of retinoic acid incubated M17-TAU P301L cells, 7 days
Attribute Measured: pEC50
By convention, pEC50 is the negative base-10 log of a molar concentration.

>  <Compound>
Cn1nc(C(=O)NCCc2c[nH]c3ccc(Cl)cc23)cc1-c1ccccc1

>  <Attribute Measured>
pEC50

>  <Endpoint Value>
7.42

$$$$

q: Using the record for COc1cccc(Cc2cc(C(=O)NCCc3c[nH]c4ccc(Cl)cc34)no2)c1 [Example D1] , report its pEC50.
a: 8.70

q: What do you have for CC(C)(C)OC(=O)Nc1cc(C(=O)NCCc2c[nH]c3ccc(Cl)cc23)no1 ?
a: 7.38

###

System: M17-TAU P301L cells
Protocol Description: TAU cytotoxicity assay: LDH leakage of retinoic acid incubated M17-TAU P301L cells
Format: cell-based, human
Setup Conditions: Homo sapiens, 168 h, reduction of LDH activity of retinoic acid incubated M17-TAU P301L cells, 7 days
pEC50: −log10 of the molar value.
Please mark Criterion met if the recorded pEC50 is equal to or greater than 7, and Criterion not met if it falls below.

>  <Compound>
O=C(NCCCc1c[nH]c2ccc(Cl)cc12)c1cc(Cc2cccc(F)c2)on1 [Example D35]

>  <Category Label>
Criterion met

$$$$

q: Tell me whether pEC50 is at least 7 here: O=C(NCCc1c[nH]c2ccccc12)c1cc(Cc2cccc(F)c2)on1 [Example D31]
a: Criterion met

###

// reported pEC50 per item
Tested on: M17-TAU P301L cells
Protocol Description: TAU cytotoxicity assay: LDH leakage of retinoic acid incubated M17-TAU P301L cells
Assay type: cell-based, human
Setup Conditions: Homo sapiens, 168 h, reduction of LDH activity of retinoic acid incubated M17-TAU P301L cells, 7 days
Source text: A TAU expression plasmid was constructed by sub-cloning the cDNA of human TAU-P301 L (encoding for TAU with proline 301 substituted by a leucine residue) into mammalian expression vector pcDNA3.1 resulting in plasmid pcDNA3.1-TAU P301L. […] Exemplary compounds of the present invention are shown in table 2, with their chemical name and their EC50 value (expressed in nM) as determined from example 196 in the Tau-induced toxicity experiment.
Bear in mind: pEC50 is minus log10 of a mol/L concentration; give just that figure.

>  <Molecule>
CC(C)(C)c1ccc(Cc2nc(C(=O)NCCc3c[nH]c4ccc(Cl)cc34)no2)cc1

>  <Endpoint Value>
7.00

$$$$
>  <Molecule>
O=C(NCCc1c[nH]c2ccc(Cl)cc12)c1noc(Cc2cccs2)n1

>  <Endpoint Value>
6.99

$$$$

q: Suppose we examine the compound O=C(NCCc1c[nH]c2ccc(Cl)cc12)c1cc(Cc2ccc(C(F)(F)F)cc2)on1 ; what pEC50 value has been reported?
a: 7.80

q: Now the compound COc1ccc(Cc2nc(C(=O)NCCc3c[nH]c4ccc(Cl)cc34)no2)cc1OC
a: 6.90

###

Each entry below carries its recorded pEC50.
Tested on: M17-TAU P301L cells
Protocol Description: TAU cytotoxicity assay: LDH leakage of retinoic acid incubated M17-TAU P301L cells
Type: cell-based, human
Setup Conditions: Homo sapiens, 168 h, reduction of LDH activity of retinoic acid incubated M17-TAU P301L cells, 7 days
Reminder that pEC50 is minus the log10 of a molar concentration.

Example entries begin here.
>  <Compound>
O=C(NCCc1c[nH]c2ccc(Cl)cc12)c1cc(C(=O)c2cc(F)ccc2F)on1 [Example D194]

>  <Endpoint Value>
6.95

$$$$
>  <Compound>
O=C(NCCc1c[nH]c2ccc(Cl)cc12)C1CCN(C2CC2)C1=O (centres unmarked) [Example D149]

>  <Endpoint Value>
5.68

$$$$

q: Could you share which pEC50 value was measured for COc1ccccc1Cc1nc(C(=O)NCCc2c[nH]c3ccc(Cl)cc23)no1 [Example D183] ?
a: 7.33

q: // next record O=C(NCCc1c[nH]c2ccc(-c3ccccc3)cc12)c1cc(Cc2cc(F)ccc2F)on1 [Example D140]
a: 6.50

q: Now the same for CCCc1cc(-c2nc(C)c(C(=O)NCCc3c[nH]c4ccccc34)s2)ccn1 [Example D33]
a: 7.25

q: Now the same for O=C(NCCc1c[nH]c2ccc(Cl)cc12)c1cc(Cc2cc(F)ccc2F)on1 [Example D5]
a: 7.92

q: Same lookup for O=C(NCCc1c[nH]c2ccc(Cl)cc12)C1CCN(c2ccc(F)c(F)c2)C1=O (centres unmarked) [Example D148] , please.
a: 6.16

q: Also O=C(NCCc1c[nH]c2ccc(Cl)cc12)C1CCN(c2cccc(-n3cccc3)c2)C1=O (centres unmarked) [Example D155] ?
a: 5.86
